Assay system protein kinase D3 (PKD3) (Homo sapiens, UniProt O94806); read-out recorded as pIC50.
Please express pIC50 as -log10 of the molar concentration.

Measured pIC50 for this entry "COC(=O)c1ccc(-c2ccnc(NC3CCCCC3)c2)nc1N1CCNCC1" on protein kinase D3 (PKD3) (Homo sapiens, UniProt O94806): 6.78

Measured pIC50 for this entry "NC(=O)c1cc(-c2ccnc(NC3CCCCC3)c2)nc(N2CCN3CCC[C@@H]3C2)c1" on protein kinase D3 (PKD3) (Homo sapiens, UniProt O94806): 7.70

Measured pIC50 for this entry "N#CCNC(=O)c1ccc(-c2ccnc(NC3CCCCC3)c2)nc1N1CCNCC1" on protein kinase D3 (PKD3) (Homo sapiens, UniProt O94806): 6.94

Measured pIC50 for this entry "FC(F)(F)c1cc(-c2ccnc(NC3CCCCC3)c2)nc(N2CCNCC2)c1" on protein kinase D3 (PKD3) (Homo sapiens, UniProt O94806): 7.89

Measured pIC50 for this entry "CS(=O)(=O)c1cc(-c2ccnc(NC3CCCCC3)c2)nc(N2CCNCC2)c1" on protein kinase D3 (PKD3) (Homo sapiens, UniProt O94806): 7.07
